target: XIAP-BIR3 (Homo sapiens); construct: serial dilutions of MLXBIR3SG, XIAP-BIR3, cIAP1XBIR3, or cIAP2XBIR3; test: Fluorescence polarization peptide binding assay, XIAP-BIR3; conditions: 0.5 μM XIAP-BIR3, 5 nM AVP-diPhe-FAM probe; read-out: XIAPBIR3 IC50
Sequence (P98170 241-356 limits assumed): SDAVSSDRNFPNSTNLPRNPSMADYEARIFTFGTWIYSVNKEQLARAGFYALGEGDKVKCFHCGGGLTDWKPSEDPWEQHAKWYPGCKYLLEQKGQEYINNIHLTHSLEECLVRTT
PROPERTY LABEL: IC50
Field: value (include unit after the number)

Consider the worked cases shown below.
smiles_representation=CN[C@@H](C)C(=O)N[C@H](C(=O)N1CCC[C@H]1c1cc2ccnc(-c3ccc(F)cc3)c2[nH]1)C1CCOCC1 property_label=IC50 result="481 nM"
smiles_representation=CN[C@@H](C)C(=O)N[C@H](C(=O)N1CCC[C@H]1c1cc2ncnc(-c3ccccc3)c2[nH]1)C1CCOCC1 property_label=IC50 result="434 nM"
smiles_representation=CN[C@@H](C)C(=O)N[C@H](C(=O)N1CCC[C@H]1c1cc2ncnc(-c3ccccc3)c2[nH]1)C1CCCCC1 property_label=IC50 result="445 nM"

Then there is this compound:
Q: Returns the measured IC50 for the input compound. Input: CN[C@@H](C)C(=O)N[C@H](C(=O)N1CCC[C@H]1c1cc2ccnc(-c3ccccc3Cl)c2[nH]1)C1CCOCC1
Ans: 682 nM
